Can you tell me T/C for the items I'm about to list?
Tested on: P388 leukemia ip, CD2F1 mice, survival T/C
Test: NCI In Vivo Anticancer Drug Screen. Data for tumor model P388 Leukemia (intraperitoneal) in CD2F1 (CDF1) mice
Settings: endpoint: median survival time; dose: 200.0 mg/kg/injection; schedule: Q01DX009 (ip); vehicle: saline with Tween-80; higher = longer survival
Inconclusive results and toxic doses are left out.

Short answer on P388 leukemia ip, CD2F1 mice, survival T/C for O=C1CCCSc2ccccc21 , T/C: 106 % of control

Short answer on P388 leukemia ip, CD2F1 mice, survival T/C for O=C1C2=C(CCC2)C2CCCC12 (stereo not drawn) , T/C: 90 % of control

Short answer on P388 leukemia ip, CD2F1 mice, survival T/C for CN(C)C(=O)c1cccc(COc2ccc(N)cc2Cl)c1 , T/C: 90 % of control

Short answer on P388 leukemia ip, CD2F1 mice, survival T/C for O=[N+]([O-])c1cccc2ccc(N/N=C/c3ccccc3O)nc12 , T/C: 88 % of control

Short answer on P388 leukemia ip, CD2F1 mice, survival T/C for c1ccc2c(c1)CN1Cc3ccccc3C2C1 , T/C: 91 % of control

Short answer on P388 leukemia ip, CD2F1 mice, survival T/C for O=CC1(c2ccco2)SCCCS1 , T/C: 104 % of control

Short answer on P388 leukemia ip, CD2F1 mice, survival T/C for Cc1ccc([N+](=O)[O-])c2ccccc12 , T/C: 96 % of control

Short answer on P388 leukemia ip, CD2F1 mice, survival T/C for C=C(Cl)CSc1ncnc2nc[nH]c12 , T/C: 109 % of control

Short answer on P388 leukemia ip, CD2F1 mice, survival T/C for COC(=O)c1c(C(=O)OC)c(-c2ccc(Cl)c(Cl)c2)n2c1CCC2 , T/C: 89 % of control

Short answer on P388 leukemia ip, CD2F1 mice, survival T/C for Cc1ccc(S(=O)(=O)N=P(c2ccccc2)(c2ccccc2)c2ccccc2)cc1 , T/C: 95 % of control

Short answer on P388 leukemia ip, CD2F1 mice, survival T/C for C(C#Cc1ccccc1)#Cc1ccccc1 , T/C: 98 % of control

Short answer on P388 leukemia ip, CD2F1 mice, survival T/C for CCOC(=O)C1=NN(c2ccccc2)C(=O)C1c1ccccc1 (stereo not drawn) , T/C: 107 % of control

Short answer on P388 leukemia ip, CD2F1 mice, survival T/C for BrC1/C=C\CC(Br)/C=C\C1 (stereo not drawn) , T/C: 115 % of control

---

Can you tell me T/C for the items I'm about to list?
Test system: P388 leukemia ip, CD2F1 mice, survival T/C
Assay: NCI In Vivo Anticancer Drug Screen. Data for tumor model P388 Leukemia (intraperitoneal) in CD2F1 (CDF1) mice
Conditions: endpoint: median survival time; dose: 12.5 mg/kg/injection; schedule: Q01DX009 (ip); vehicle: saline with Tween-80; higher = longer survival
Toxic doses and inconclusive results are not listed.

response.value for COc1ccc(C2CC(=O)N(CN3CCN(c4ccc(Cl)cc4)CC3)C(=O)C2)cc1 (field: T/C) = 94 % of control

response.value for O=[N+]([O-])c1cccc2c1CCCC2 (field: T/C) = 100 % of control

response.value for CS[C@@H]1C[C@H]2[C@@H]3CCC4=CC(=O)CC[C@]4(C)[C@H]3CC[C@]2(C)[C@H]1C(C)=O (field: T/C) = 90 % of control

response.value for CCCCCCCCCCCCCCCC(=O)N(CCCN)CCCN(CCCN)C(=O)CCCCCCCCCCCCCCC (field: T/C) = 86 % of control

response.value for O=C1NC(=O)C2C1C1C3OC3C2C2C3C(=O)NC(=O)C3C12 (stereo not drawn) (field: T/C) = 116 % of control

response.value for COC1/C=C/OC2(C)Oc3c(C)c(O)c4c(O)c(c(/C=N/N5CC(C)N(Cc6ccccc6)C(C)C5)c(O)c4c3C2=O)NC(=O)C(C)=C/C=C/C(C)C(O)C(C)C(O)C(C)C(OC(C)=O)C1C (stereo not drawn) (field: T/C) = 113 % of control

response.value for COc1cc[n+](CCc2c[nH]c3ccccc23)cc1 (field: T/C) = 109 % of control

response.value for Nc1nc(N)c(-c2cccc(Cl)c2)c(CBr)n1 (field: T/C) = 113 % of control
